The origin of these recorded values is patent US20100298141A1.

# Plant response rating, Rice per entry
Tested on: rice
Assay: Test C flooded paddy test
Format: in vivo, Oryza sativa
Conditions: Flood, 125 g ai/ha; scale 0 to 100, 0 no effect, 100 complete control; 13 to 15 days
Excerpt: At time of treatment, test pots were flooded to 3 cm above the soil surface, treated by application of test compounds directly to the paddy water, and then maintained at that water depth for the duration of the test. Treated plants and controls were maintained in a greenhouse for 13 to 15 days, after which time all species were compared to controls and visually evaluated. […] A dash (-) response means no test result.
EXPERIMENTAL ENDPOINT: Plant response rating, Rice

# MOLECULE, TARGET, EXPERIMENTAL VALUE
rows = [
    ("Cn1nc(C(F)(F)F)c(CS(=O)(=O)c2ccc(Cl)c[n+]2[O-])c1OC(F)F", "rice", 15),
    ("Cn1nc(C(F)(F)F)c(C(Cl)S(=O)(=O)c2cccc[n+]2[O-])c1Cl (stereo not drawn)", "rice", 70),
    ("Cn1nc(C(F)(F)F)c(C[S+]([O-])c2cc(Br)cc[n+]2[O-])c1Cl (racemic)", "rice", 0),
]

###

tested on: downy brome; assay: Test C pre-/postemergence test; format: in vivo, Bromus tectorum; conditions: preemergence, 250 g ai/ha; scale 0 (no effect) to 100 (complete control)
# Bromegrass, Downy plant response rating per entry

# MOLECULE, Bromegrass, Downy plant response rating
measured = [
    ("Cc1cc[n+]([O-])c(S(=O)(=O)Cc2c(C(F)(F)F)nn(C)c2OC(C)C(F)(F)F)c1 (centres unmarked) [Compound 96]", 55),
    ("Cn1nc(C(F)(F)F)c(C[S+]([O-])c2ccc(F)c[n+]2[O-])c1OCC(F)(F)F (centres unmarked) [Compound 67]", 100),
    ("CCc1cc[n+]([O-])c(S(=O)(=O)Cc2c(C(F)(F)F)nn(C)c2OCC(F)(F)F)c1 [Compound 60]", 90),
    ("Cn1nc(C(F)(F)F)c(C[S+]([O-])c2cc(F)cc[n+]2[O-])c1Cl (racemic) [Compound 42]", 70),
    ("Cn1nc(C(F)(F)F)c(C[S+]([O-])c2ccc(Cl)c[n+]2[O-])c1OCC(F)(F)F (racemic) [Compound 62]", 85),
    ("CCn1nc(C(F)(F)F)c(C[S+]([O-])c2cccc[n+]2[O-])c1OCC(F)(F)F (racemic) [Compound 65]", 100),
    ("CCc1cc[n+]([O-])c(S(=O)(=O)Cc2c(C(F)(F)F)nn(C)c2OC(F)F)c1 [Compound 102]", 100),
    ("Cn1nc(OC(F)F)c(CS(=O)(=O)c2cccc[n+]2[O-])c1C(F)(F)F [Compound 80]", 95),
]

###

test system: millet foxtail; assay: Test G preemergence test; assay type: in vivo, Setaria italica; details: 31 g ai/ha, scale 0 to 100
EXPERIMENTAL ENDPOINT: Plant response rating, Foxtail, Millet

# COMPOUND, TARGET, EXPERIMENTAL VALUE
measured = [
    ("Cn1nc(C(F)(F)F)c(C(Cl)S(=O)(=O)c2cccc[n+]2[O-])c1Cl (stereo not shown) [Compound 12]", "millet foxtail", 45),
    ("Cc1cc[n+]([O-])c(S(=O)(=O)Cc2c(C(F)(F)F)nn(C)c2OC(F)F)c1 [Compound 2]", "millet foxtail", 0),
    ("Cc1cc[n+]([O-])c(S(=O)(=O)C(Cl)c2c(C(F)(F)F)nn(C)c2Cl)c1 (racemic) [Compound 22]", "millet foxtail", 95),
    ("Cc1cc[n+]([O-])c([S+]([O-])Cc2c(C(F)(F)F)nn(C)c2OC(F)F)c1 (stereo not shown) [Compound 1]", "millet foxtail", 0),
]
